- TEST SUMMARY: In vivo pharmacokinetics in portal hypertension patients (plasma HPLC)
- TEST CONTEXT: human, in vivo, po, 100 mg
- Method: Nine volunteers among portal hypertension patients who were in the criterion of age from 19-45 and weight over 45 kg (within 15% deviation of ideal body weight) participated in experiments. They were all volunteers who agreed in writing to join the experiments and were trustworthy, cooperative and willing to follow the rules. A double blind method was used for the experiments. At 8-9 am on the test day, test medicines were given with 240 mL of water to volunteers. […]
PARAMETER: half-life (h)
Give just the number in h; leave the unit off.

# input What measured half-life goes with CCCOc1ccc(S(=O)(=O)NCCC2CCCN2C)cc1-c1nc2c(CCC)nn(C)c2c(=O)[nH]1 (stereo not shown) [Pyrazolopyrimidinone derivative] ?
# output 15.1
